# measurement.protocol: Inhibition of VIM2 using nitrocefin as substrate at 56 uM after 15 mins by microtiter plate assay
Label YES when inhibition >= 30%; otherwise NO.

{"compound": "O=S(=O)(NCc1[nH]nnc1CN1CCN(c2ccc(Cl)c(Cl)c2)CC1)c1ccc(I)cc1", "group.label": "NO"}
{"compound": "C#CCCOCc1nn[nH]c1CNS(=O)(=O)c1ccc(I)cc1", "group.label": "YES"}
{"compound": "COCc1nn[nH]c1CNS(=O)(=O)c1ccc(I)cc1", "group.label": "YES"}
{"compound": "CC1(C)OCC(COCc2nn[nH]c2CNS(=O)(=O)c2ccc(I)cc2)O1 (stereo unspecified)", "group.label": "YES"}
{"compound": "Cn1cc(Cc2nn[nH]c2CNS(=O)(=O)c2ccc(I)cc2)c2ccccc21", "group.label": "NO"}
{"compound": "Cc1ccc(Cl)cc1N1CCN(Cc2nn[nH]c2CNS(=O)(=O)c2ccc(I)cc2)CC1", "group.label": "NO"}

* * *

A collection of compounds and their measured Ki
# measurement.protocol: Inhibition of VIM2 using nitrocefin as substrate by rapid dilution method
test.readout: Ki (nM)

{"smiles.input": "COCc1nn[nH]c1CNS(=O)(=O)c1ccc(I)cc1", "value.units": "nM", "value.measured": 1410}
{"smiles.input": "C#CCCOCc1nn[nH]c1CNS(=O)(=O)c1ccc(I)cc1", "value.units": "nM", "value.measured": 410}

Attribution: ChEMBL document CHEMBL1154107
